FYI, the data here is from paper PMC9519446.

tested on: T. cruzi intracellular amastigotes; assay: In vitro anti-T. cruzi intracellular amastigote growth inhibition assay (tdTomato fluorescence over 72 hours, Vero cells); assay type: cell-based, Trypanosoma cruzi; conditions: Trypanosoma cruzi, Vero; in vitro; Fig. 1a, Extended Data Fig. 1a; read-out: T. cruzi IC50
resultType: log10 of IC50 (log10 of the value in nM)
# values: log10(IC50), units nM

Input: Report log10 of IC50 under test system T. cruzi intracellular amastigotes for O=C(Nc1ccc2c(c1)B(O)OC2)c1ccc(F)cc1C(F)(F)F .
Output: 2.54

Input: Report log10 of IC50 under test system T. cruzi intracellular amastigotes for Cc1c(C(=O)N[C@H](C(=O)OCc2ccc(F)cc2)C(C)(C)O)ccc2c1B(O)OC2 .
Output: 1.08

Input: Report log10 of IC50 under test system T. cruzi intracellular amastigotes for CC(C)[C@H](NC(=O)c1ccc2c(c1)B(O)OC2)C(=O)OCc1ccccc1 .
Output: 2.83

Input: Report log10 of IC50 under test system T. cruzi intracellular amastigotes for Cc1c(C(=O)N[C@H](C(=O)O)C(C)C)ccc2c1B(O)OC2 .
Output: 3.76

Input: Report log10 of IC50 under test system T. cruzi intracellular amastigotes for Cc1c(C(=O)N[C@H](C(=O)OC2CCOCC2)C(C)C)ccc2c1B(O)OC2 .
Output: 1.04

Input: Report log10 of IC50 under test system T. cruzi intracellular amastigotes for Cc1c(C(=O)NC(C(=O)OCC2CCOC2)C(C)C)ccc2c1B(O)OC2 (centres unmarked) .
Output: 0.70

Input: Report log10 of IC50 under test system T. cruzi intracellular amastigotes for Cc1c(C(=O)N[C@H](C(=O)OCC2CCOCC2)C(C)C)ccc2c1B(O)OC2 .
Output: 0.70

Input: Report log10 of IC50 under test system T. cruzi intracellular amastigotes for Cc1c(C(=O)NC(C(=O)OCc2ccc(F)c(F)c2)C(C)C)ccc2c1B(O)OC2 (centres unmarked) .
Output: 0.78

---

experiment: Pharmacokinetics in rats (IV and PO); set-up: species or system rat; conditions: in vivo; Rat PO (10 mg/kg)
resultType: AUC(0-t) (ng·h/mL)
Just the number please, in ng·h/mL, no unit attached.

Input: Quick one: give measured AUC(0-t) for Cc1c(C(=O)N[C@H](C(=O)OCC2CCOCC2)C(C)C)ccc2c1B(O)OC2 [AN15368]
Output: 3340

---

test system: T. cruzi of diverse genetic types (DTUs); experiment: In vitro susceptibility of T. cruzi strains of diverse genetic types (DTUs); format: cell-based; settings: Trypanosoma cruzi, Strain 20290; DTU TcI
resultType: pIC50
Value format note: pIC50 is -log10 of concentration (mol/L); just state the number.

Input: Quick one: give measured pIC50 for Cc1c(C(=O)NC(C(=O)OCc2ccc(F)c(F)c2)C(C)C)ccc2c1B(O)OC2 (stereo not shown)
Output: 8.52

---

assay: High dose 7-day toxicology study with exposure; settings: rat, in vivo, 600 mg/kg
resultType: AUC (µg·h/mL)
Just the number please, in µg·h/mL, no unit attached.

Input: Quick one: give measured AUC for Cc1c(C(=O)N[C@H](C(=O)OCC2CCOCC2)C(C)C)ccc2c1B(O)OC2
Output: 256

---

test: Pharmacokinetics in rats (IV and PO); design: species or system rat; conditions: in vivo; Rat PO (10 mg/kg)
resultType: bioavailability (%)
Just the number please, in %, no unit attached.

Input: Quick one: give measured bioavailability for Cc1c(C(=O)N[C@H](C(=O)OCC2CCOCC2)C(C)C)ccc2c1B(O)OC2 [AN15368]
Output: 76.1

---

tested on: T. cruzi of diverse genetic types (DTUs); assay: In vitro susceptibility of T. cruzi strains of diverse genetic types (DTUs); type: cell-based; conditions: Trypanosoma cruzi, Strain CL; DTU TcVI
resultType: pIC50
Value format note: pIC50 is -log10 of concentration (mol/L); just state the number.

Input: Quick one: give measured pIC50 for Cc1c(C(=O)NC(C(=O)OCc2ccc(F)c(F)c2)C(C)C)ccc2c1B(O)OC2 (stereo not shown)
Output: 8.22

---

tested on: TcCBP KO T. cruzi extracellular amastigotes; assay: Extracellular amastigote assay with serine carboxypeptidase knockout T. cruzi; format: cell-based, Trypanosoma cruzi; conditions: Trypanosoma cruzi, read-out: TcCBP KO IC50
resultType: IC50 (nM)
Just the number please, in nM, no unit attached.

Input: Report IC50 under test system TcCBP KO T. cruzi extracellular amastigotes for Cc1c(C(=O)NC(C(=O)OCc2ccc(F)c(F)c2)C(C)C)ccc2c1B(O)OC2 (stereo not shown) [AN14353] .
Output: 44.4

---

test system: CPSF3 mutant T. cruzi intracellular amastigotes; experiment: Intracellular amastigote assay with CPSF3 Asn to His mutant T. cruzi; assay type: cell-based, Trypanosoma cruzi; conditions: Trypanosoma cruzi, read-out: CPSF3 mutant IC50
resultType: pIC50
Value format note: pIC50 is -log10 of concentration (mol/L); just state the number.

Input: Report pIC50 under test system CPSF3 mutant T. cruzi intracellular amastigotes for Cc1c(C(=O)N[C@H](C(=O)OCC2CCOCC2)C(C)C)ccc2c1B(O)OC2 .
Output: 6.30

---

assay: Pharmacokinetics in rats (IV and PO); set-up: species or system rat; conditions: in vivo; Rat IV (2 mg/kg)
resultType: clearance (L/h/kg)
Just the number please, in L/h/kg, no unit attached.

Input: Quick one: give measured clearance for Cc1c(C(=O)N[C@H](C(=O)OCC2CCOCC2)C(C)C)ccc2c1B(O)OC2 [AN15368]
Output: 2.26

---

system: T. cruzi extracellular amastigotes; experiment: Extracellular amastigote assay (ATPlite luminescence, 48 hours); format: cell-based; details: Trypanosoma cruzi, 48 hours; extracellular amastigotes, Fig. 5f, Extended Data Fig. 4d; read-out: IC50 (nM) T. cruzi extra-
Please use true (1) for IC50 under 2 nM and false (0) for everything else, ties included.

Input: Problem: For the molecule CC(C)C(NC(=O)c1ccc2c(c1C1CC1)B(O)OC2)C(=O)OCc1ccccc1 (stereo not drawn) , is IC50 under 2 nM?
Output: false (0)

Input: Problem: For the molecule CCc1c(C(=O)N[C@H](C(=O)OCc2ccccc2)C(C)C)ccc2c1B(O)OC2 , is IC50 under 2 nM?
Output: true (1)

Input: Problem: For the molecule CC(C)[C@H](NC(=O)c1ccc2c(c1)B(O)OC2)C(=O)OCc1ccccc1 , is IC50 under 2 nM?
Output: false (0)

Input: Problem: For the molecule CC(C)c1c(C(=O)NC(C(=O)OCc2ccccc2)C(C)C)ccc2c1B(O)OC2 (stereo not drawn) , is IC50 under 2 nM?
Output: false (0)

Input: Problem: For the molecule Cc1c(C(=O)N[C@H](C(=O)OCc2ccccc2)C(C)C)ccc2c1B(O)OC2 , is IC50 under 2 nM?
Output: true (1)

Input: Problem: For the molecule CC(C)[C@H](NC(=O)c1ccc2c(c1F)B(O)OC2)C(=O)OCc1ccccc1 , is IC50 under 2 nM?
Output: false (0)

---

assay: Pharmacokinetics in rats (IV and PO); parameters: species or system rat; conditions: in vivo; Rat IV (2 mg/kg); read-out: Vss
resultType: Vd (L/kg)
Just the number please, in L/kg, no unit attached.

Input: Quick one: give measured Vd for Cc1c(C(=O)N[C@H](C(=O)OCC2CCOCC2)C(C)C)ccc2c1B(O)OC2
Output: 1.11

---

Assay: Pharmacokinetics in rats (IV and PO)
Set-up: species or system rat
Conditions: in vivo; Rat IV (2 mg/kg)
Experimental: Rat IV (2 mg/kg) Rat PO (10 mg/kg) Cl (mL/h/kg) 2258 AUC0-last (hr*µg/mL) 3.34 AUC0-last (hr*µg/mL) 0.883 for AN15368 in rats. Data are presented as mean values +/- SEM; n= 3 animals.
resultType: Cmax (ng/mL)
Just the number please, in ng/mL, no unit attached.

Input: Quick one: give measured Cmax for Cc1c(C(=O)N[C@H](C(=O)OCC2CCOCC2)C(C)C)ccc2c1B(O)OC2 [AN15368]
Output: 1700

---

experiment: Pharmacokinetics in rats (IV and PO); design: species or system rat; details: in vivo; Rat IV (2 mg/kg)
resultType: AUC(0-t) (ng·h/mL)
Just the number please, in ng·h/mL, no unit attached.

Input: Quick one: give measured AUC(0-t) for Cc1c(C(=O)N[C@H](C(=O)OCC2CCOCC2)C(C)C)ccc2c1B(O)OC2
Output: 883

---

assay: Pharmacokinetics in rats (IV and PO); set-up: species or system rat; conditions: in vivo; Rat PO (10 mg/kg)
resultType: Cmax

Input: Quick one: give measured Cmax for Cc1c(C(=O)N[C@H](C(=O)OCC2CCOCC2)C(C)C)ccc2c1B(O)OC2
Output: 2100 ng/mL

---

assay: High dose 7-day toxicology study with exposure; conditions: rat, in vivo, 120 mg/kg/day, Total plasma exposure (AUC0-24 h), rats, 120 mg/kg/day (NOAEL dose)
resultType: AUC(0-t)

Input: Quick one: give measured AUC(0-t) for Cc1c(C(=O)N[C@H](C(=O)OCC2CCOCC2)C(C)C)ccc2c1B(O)OC2
Output: 30000 ng·h/mL
